# experimental-target: T1, human KLK5 (human, UniProt Q9Y337 67-293)
# T1 construct: also called huKLK5; KLK5 AMC
# T1 sequence: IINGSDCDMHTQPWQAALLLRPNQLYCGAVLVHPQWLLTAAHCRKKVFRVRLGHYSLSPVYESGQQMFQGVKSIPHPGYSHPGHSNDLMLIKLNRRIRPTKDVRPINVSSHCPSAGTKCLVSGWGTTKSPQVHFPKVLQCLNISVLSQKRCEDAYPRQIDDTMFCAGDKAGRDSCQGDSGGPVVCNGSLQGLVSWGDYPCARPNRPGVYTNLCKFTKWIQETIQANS
# assay-protocol: SPR, one-armed monovalent antibody
property-label: kon (M⁻¹ s⁻¹)
Respond with the bare value in M⁻¹ s⁻¹.

Worked examples follow.
binder: OA.hu.10C5.L5H28.WT (antibody, V domains shown, One-armed (OA) monovalent anti-KLK5 antibody with a human IgG1 Fc, without Q38E/Q39K; constant regions and dummy Fc chain not specified) VH: EVQLVESGGGLVQPGGSLRLSCAASGFSLSSYGVTWVRQAPGKGLEWIGYITSNYGVSYYASWAKSRSTISRDTSKNTVYLQMGSLRAEDMAVYYCARENPDYGYAYDAWGQGTTVTVSS VL: AIRMTQSPSSFSASTGDRVTITCQASESISNELSWYQQKPGKAPKLLIYYASTLASGVPSRFSGSGSGTDFTLTISSLQPEDFATYYCAQGFGSSGVENVFGGGTKVEIK
endpoint-unit: M⁻¹ s⁻¹
kon: 1.25e+07

binder: OA.hu.10C5.N53V (antibody, V domains shown, One-armed (OA) monovalent anti-KLK5 antibody with a human IgG1 Fc, without Q38E/Q39K; constant regions and dummy Fc chain not specified) VH: EVQLVESGGGLVQPGGSLRLSCAASGFSLSSYGVTWVRQAPGKGLEWIGYITSVYGVSYYASWAKSRSTISRDTSKNTVYLQMGSLRAEDMAVYYCARENPDYGYAYDAWGQGTTVTVSS VL: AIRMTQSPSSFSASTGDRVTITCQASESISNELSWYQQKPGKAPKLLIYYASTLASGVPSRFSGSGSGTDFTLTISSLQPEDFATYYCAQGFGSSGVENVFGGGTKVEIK
endpoint-unit: M⁻¹ s⁻¹
kon: 6.84e+06

input: Read the entry OA.hu.10C5.N53V.S34K.F92Y.S95F (antibody, V domains shown, One-armed (OA) monovalent anti-KLK5 antibody with a human IgG1 Fc, with Q38E/Q39K; constant regions and dummy Fc chain not specified) VH: EVQLVESGGGLVQPGGSLRLSCAASGFSLSSYGVTWVRKAPGKGLEWIGYITSVYGVSYYASWAKSRSTISRDTSKNTVYLQMGSLRAEDMAVYYCARENPDYGYAYDAWGQGTTVTVSS VL: AIRMTQSPSSFSASTGDRVTITCQASESISNELKWYQEKPGKAPKLLIYYASTLASGVPSRFSGSGSGTDFTLTISSLQPEDFATYYCAQGYGSFGVENVFGGGTKVEIK and write its reported kon.
output: 5.13e+06

input: Read the entry OA.hu.10C5.N53V.S95F (antibody, V domains shown, One-armed (OA) monovalent anti-KLK5 antibody with a human IgG1 Fc, with Q38E/Q39K; constant regions and dummy Fc chain not specified) VH: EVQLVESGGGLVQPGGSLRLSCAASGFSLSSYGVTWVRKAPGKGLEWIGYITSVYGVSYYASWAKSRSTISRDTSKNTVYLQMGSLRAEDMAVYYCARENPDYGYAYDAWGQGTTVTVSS VL: AIRMTQSPSSFSASTGDRVTITCQASESISNELSWYQEKPGKAPKLLIYYASTLASGVPSRFSGSGSGTDFTLTISSLQPEDFATYYCAQGFGSFGVENVFGGGTKVEIK and write its reported kon.
output: 5.82e+06

input: Read the entry OA.hu.10C5.N53V.S34K.S95F (antibody, V domains shown, One-armed (OA) monovalent anti-KLK5 antibody with a human IgG1 Fc, with Q38E/Q39K; constant regions and dummy Fc chain not specified) VH: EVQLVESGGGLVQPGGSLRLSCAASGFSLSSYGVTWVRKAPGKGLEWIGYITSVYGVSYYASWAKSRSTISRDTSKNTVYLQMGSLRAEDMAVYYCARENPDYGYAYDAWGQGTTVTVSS VL: AIRMTQSPSSFSASTGDRVTITCQASESISNELKWYQEKPGKAPKLLIYYASTLASGVPSRFSGSGSGTDFTLTISSLQPEDFATYYCAQGFGSFGVENVFGGGTKVEIK and write its reported kon.
output: 4.25e+06

input: Read the entry OA.hu.10C5.N53V.S34K.F92Y (antibody, V domains shown, One-armed (OA) monovalent anti-KLK5 antibody with a human IgG1 Fc, with Q38E/Q39K; constant regions and dummy Fc chain not specified) VH: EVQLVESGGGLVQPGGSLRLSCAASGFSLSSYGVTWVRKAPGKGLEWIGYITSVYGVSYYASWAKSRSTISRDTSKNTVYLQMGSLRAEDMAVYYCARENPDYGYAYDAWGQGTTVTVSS VL: AIRMTQSPSSFSASTGDRVTITCQASESISNELKWYQEKPGKAPKLLIYYASTLASGVPSRFSGSGSGTDFTLTISSLQPEDFATYYCAQGYGSSGVENVFGGGTKVEIK and write its reported kon.
output: 3e+06

input: Read the entry OA.hu.10C5.N53V.S34K (antibody, V domains shown, One-armed (OA) monovalent anti-KLK5 antibody with a human IgG1 Fc, with Q38E/Q39K; constant regions and dummy Fc chain not specified) VH: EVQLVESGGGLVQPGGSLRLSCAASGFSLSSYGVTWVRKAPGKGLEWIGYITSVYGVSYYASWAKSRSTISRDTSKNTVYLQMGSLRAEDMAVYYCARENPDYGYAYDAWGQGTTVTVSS VL: AIRMTQSPSSFSASTGDRVTITCQASESISNELKWYQEKPGKAPKLLIYYASTLASGVPSRFSGSGSGTDFTLTISSLQPEDFATYYCAQGFGSSGVENVFGGGTKVEIK and write its reported kon.
output: 3.42e+06

Hey, just so you know, these numbers are from patent US20240084042A1.
